- experiment.summary: A CellTox Green Cytotoxicity Assay to monitor cytotoxicity in HEK293 cells - 8 hour (AID 1224884); note: nearly all actives have a fitted effect of over 35% in size
- test.parameters: CellTox Green fluorescence; series mostly up to 76.8 µM
Results filed as inconclusive are left out. Calls of active or inactive are those of the source. Calls come from the whole dose curve; as a rule, active = well fitted activation curve with a large enough effect in the repeat runs; inconclusive = weak or mixed curves; inactive = flat fitted curve, though single readings scatter.
Choose one outcome from this list and give only that: active, inactive

CO[Si](CCCNCCNCCN)(OC)OC
inactive

Problem: Outcome logged for `CN(C)CCCN1c2ccccc2Sc2ccc(C(F)(F)F)cc21` in this assay:
Result: inactive

Problem: What was the test verdict on CSc1ccc2c(c1)N(CCC1CCCCN1C)c1ccccc1S2 (configuration not stated) ?
Result: active

Problem: For this compound, state the assay outcome: `CCCN(CCc1cccs1)[C@H]1CCc2c(O)cccc2C1`
Result: inactive

Problem: Would you mind telling me which call this test gave CCCCCCC(C)OC(=O)COc1nc(F)c(Cl)c(N)c1Cl (configuration not stated) ?
Result: inactive

Problem: # outcome recorded in this test, key = `C[C@@H]1CC[C@H]2C(C)(C)[C@H]3C[C@@]12CC[C@@]3(C)O`
Result: active

Problem: Check the results log: what was the call for `O=C1OC(=O)c2cccc3cccc1c23` ?
Result: inactive

Problem: Hey, what did the test say about `O=C[C@H](O)[C@H](O)[C@H](O)CO` ?
Result: inactive

Problem: I would be grateful if you could indicate the recorded call for `Cc1cc(Nc2ccc(O)cc2)ccc1N` .
Result: inactive

Problem: Recorded test outcome, item `NC(=O)c1nc(-c2cccc(-c3cc(F)ccc3OCC(F)(F)C(F)(F)F)c2)n[nH]1`
Result: inactive

Problem: State the result this test recorded for `C[Si](C)(C)Cl` .
Result: inactive

Problem: Assay result, entry `Cn1cnc2ncnc(N)c21` — outcome?
Result: inactive

Problem: Write down the call the test reported for this compound. Item: `CCc1c(Br)c(Br)c(Br)c(Br)c1Br`
Result: inactive
